assay.system: T1, SK-OV-3细胞上的CD73 (human, UniProt P21589 27-549)
T1 construct: whole, on cells; Endogenous CD73 of the human CD73-positive cell line SK-OV-3; also called 人CD73阳性细胞; SK-OV-3细胞表面的CD73
T1 sequence (looked up): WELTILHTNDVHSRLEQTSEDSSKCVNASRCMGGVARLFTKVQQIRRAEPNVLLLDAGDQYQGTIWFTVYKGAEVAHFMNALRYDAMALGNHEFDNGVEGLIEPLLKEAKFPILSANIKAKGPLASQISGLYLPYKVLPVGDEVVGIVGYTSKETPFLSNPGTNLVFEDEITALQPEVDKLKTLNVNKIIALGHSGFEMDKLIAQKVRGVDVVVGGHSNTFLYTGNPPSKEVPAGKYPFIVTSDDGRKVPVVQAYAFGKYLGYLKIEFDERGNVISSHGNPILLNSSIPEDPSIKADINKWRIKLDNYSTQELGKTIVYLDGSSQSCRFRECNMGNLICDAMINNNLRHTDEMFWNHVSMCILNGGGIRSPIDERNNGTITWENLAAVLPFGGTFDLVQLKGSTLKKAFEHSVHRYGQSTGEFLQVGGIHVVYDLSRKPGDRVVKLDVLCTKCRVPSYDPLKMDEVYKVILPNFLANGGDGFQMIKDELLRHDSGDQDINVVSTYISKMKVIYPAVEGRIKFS
assay.method.text: flow cytometry on SK-OV-3 cells, Anti-hFC-APC

[
  {
    "binder": "137-6 (antibody, IgG1, V domains shown, also called 人源化CD73抗体; CQ137人源化抗体; not shown: kappa constant region) VH: QVQLVQSGAEVKKPGSSVKVSCKASGYSFTGYYIHWVRQAPGQGLEWMGRINPYNGATTYNQNFKDRVTITVDKSTSTAYMELSSLRSEDTAVYYCARFHYGAPEYWGQGTLVTVSS VL: DIQMTQSPSSLSASVGDRVTITCKASQDINTYLTWYQQKPGKAPKTLIYRANILVDGVPSRFSGSGSGTDFTLTISSLQPEDFATYYCLQYAEFPLTFGGGTKVEIKR",
    "binding result": "binds"
  },
  {
    "binder": "137-7 (antibody, IgG1, V domains shown, also called 人源化CD73抗体; CQ137人源化抗体; not shown: kappa constant region) VH: QVQLVQSGAEVKKPGSSVKVSCKASGYSFTGYYIHWVRQAPGQGLEWMGRINPYNGATTYNQNFKDRVTITVDKSTSTAYMELSSLRSEDTAVYYCARFHYGAPNYWGQGTLVTVSS VL: DIQMTQSPSSLSASVGDRVTITCKASQDINTYLTWYQQKPGKAPKTLIYRANILVDGVPSRFSGSGSGTDFTLTISSLQPEDFATYYCLQYDDFPLTFGGGTKVEIKR",
    "binding result": "binds"
  },
  {
    "binder": "137-8 (antibody, IgG1, V domains shown, also called 人源化CD73抗体; CQ137人源化抗体; not shown: kappa constant region) VH: QVQLVQSGAEVKKPGSSVKVSCKASGYSFTGYYIHWVRQAPGQGLEWMGRINPYNGATTYNQNFKDRVTITVDKSTSTAYMELSSLRSEDTAVYYCARFHYGAPDFWGQGTLVTVSS VL: DIQMTQSPSSLSASVGDRVTITCKASQDINTYLTWYQQKPGKAPKTLIYRANILVDGVPSRFSGSGSGTDFTLTISSLQPEDFATYYCLQYDQFPLTFGGGTKVEIKR",
    "binding result": "binds"
  }
]

Every entry's value here was drawn from patent CN113045659A.
